// values below are reported sensor-assay potency score (higher = more potent)
molecular target: MYO1A; test: pooled miR-30 sensor sort-seq; sequence = guide strand; settings: shRNA; further: reference of the scale not given here

Polymer sequence | Reported measurement
TTGTCGAATCTCCTCCTCCGAG | -0.993
TAGCACTTGTCGAATCTCCTCC | 0.419
TAAATCTTCTGTATGAGTGTGG | 0.504
TTGAGCTGCTTCACTAATCGGG | 0.105
TAGTCCACCTTTGTCCACGGTA | -0.661

Read the next record carefully.
For TAAGACATCACCAGCTTGCTGG , what is its reported sensor-assay potency score (higher = more potent)? -0.216

###

biological target: JDP2; assay: pooled miR-30 sensor sort-seq; sequence = guide strand; details: shRNA
Classification field: True = sensor-assay potency score (higher = more potent) at or over -0.9; False = sensor-assay potency score (higher = more potent) under -0.9.

Polymer sequence | Category label
TCTTCTTGTTCCGGCATCGGGC | True

Hi, just wondering whether TTTGGTTGCAACTCATGGCTTT shows sensor-assay potency score (higher = more potent) of -0.9 or higher. True

Hi, just wondering whether TTAGGAGTTACACACAACGGCC shows sensor-assay potency score (higher = more potent) of -0.9 or higher. False

Hi, just wondering whether ATAACAAACAAACCATAGCATA shows sensor-assay potency score (higher = more potent) of -0.9 or higher. False

Hi, just wondering whether TTTCCTTCGCTCCTCTTCCTCA shows sensor-assay potency score (higher = more potent) of -0.9 or higher. True

###

biological target: CD180; experiment: pooled miR-30 sensor sort-seq; sequence = guide strand; conditions: shRNA
Classification field: 1.0 = sensor-assay potency score (higher = more potent) at or over -0.3; 0.0 = sensor-assay potency score (higher = more potent) under -0.3.

Some solved entries appear below for comparison.
Polymer sequence | Category label
TTTAACTGCAAAAAATAGCAGA | 0.0
TTGTGTTTGGTAGAGTGTCAGG | 0.0

Hi, just wondering whether TTGAGTTGCAGACTGCAGCAGT shows sensor-assay potency score (higher = more potent) of -0.3 or higher. 1.0

Hi, just wondering whether TAAATTAATGGTGCTCTGCTGG shows sensor-assay potency score (higher = more potent) of -0.3 or higher. 0.0

Hi, just wondering whether TTGGTCTTCGTGATAGTCCCAT shows sensor-assay potency score (higher = more potent) of -0.3 or higher. 1.0

###

molecular target: PLEKHB1; assay: pooled miR-30 sensor sort-seq; sequence = guide strand; conditions: shRNA
Property measured: sensor-assay potency score (higher = more potent)

Polymer sequence | Reported measurement
TTCCCGTAGGTTCACAGTCAGC | -1.99
TCTGTCTCCACAGCCAGCCGCC | -1.23
TTGAAGTGGATGAGCACACGGT | -0.311
TCATCCTTGGTCTCCGCACAGA | -1.23
TATGTCACGGACATTGAAGTGG | -0.329

For TCGTAGTAGTCTTGGTACGGGC , what is its reported sensor-assay potency score (higher = more potent)? -1.27

For TAGTAGTCTTGGTACGGGCTGT , what is its reported sensor-assay potency score (higher = more potent)? -0.059

For TGAAGTGGATGAGCACACGGTC , what is its reported sensor-assay potency score (higher = more potent)? -1.12

###

target: ARHGAP30; test: pooled miR-30 sensor sort-seq; sequence = guide strand; conditions: shRNA
// values below are reported sensor-assay potency score (higher = more potent)
Write the value as a bare number.

# annotated cases, reported sensor-assay potency score (higher = more potent) shown
Polymer sequence | Reported measurement
TTTGGCACAGTCAACCTCCAGG | -0.36
TTATTCTGAGACATTGACCTTC | 0.266
TTGTGTCGGAGACAAGTTCAGG | -1.32
TAGAGTTGGGCACTACAGCTGC | -0.34

Read the next record carefully.
For TTGTTGGATTTATCCTCCCTGT , what is its reported sensor-assay potency score (higher = more potent)? -0.894

###

molecular target: VWA2; test: pooled miR-30 sensor sort-seq; sequence = guide strand; conditions: shRNA
Property measured: sensor-assay potency score (higher = more potent)

# annotated cases, reported sensor-assay potency score (higher = more potent) shown
Polymer sequence | Reported measurement
TTTGAAAACCATCCTCTTGATT | -0.884
TCTCACAAAGCTCTGCATCTGA | 0.327
TAGACCATCACATGCTTTGGGC | -0.664

For AAAACCATCCTCTTGATTCTTG , what is its reported sensor-assay potency score (higher = more potent)? -0.0709

For TTGCTTACATGGACTTCCTGGA , what is its reported sensor-assay potency score (higher = more potent)? -0.0634

For TAACAGAAACATGATGTCCACT , what is its reported sensor-assay potency score (higher = more potent)? -1.06

For TTTGGTTGAACAGATCCTGAGG , what is its reported sensor-assay potency score (higher = more potent)? -0.36

###

target: ZMYM3; test: pooled miR-30 sensor sort-seq; sequence = guide strand; settings: shRNA
Classification field: TRUE = sensor-assay potency score (higher = more potent) at or over -0.3; FALSE = sensor-assay potency score (higher = more potent) under -0.3.

Some solved entries appear below for comparison.
Polymer sequence | Category label
TTGTCTGTGCTCTCCAAGGTAG | FALSE
TTGACCACAGATCCCATCCTGC | TRUE
TTTGTGACACACTTGAGCGTAG | TRUE
TTGTTCAGTAGACACATCCTCA | TRUE

Hi, just wondering whether TTACACAGGGTCTTGCACCAGA shows sensor-assay potency score (higher = more potent) of -0.3 or higher. TRUE

Hi, just wondering whether AAACAGGTCACAGTCTTCCAGG shows sensor-assay potency score (higher = more potent) of -0.3 or higher. FALSE

###

molecular target: C1QL1; experiment: pooled miR-30 sensor sort-seq; sequence = guide strand; details: shRNA
Classification field: Met = sensor-assay potency score (higher = more potent) at or over -0.7; Not met = sensor-assay potency score (higher = more potent) under -0.7.

Polymer sequence | Category label
TAGTTGTTGCCTAGGTTGGTGA | Not met
TGCAGGATCACGCTGTTGCTGG | Not met
TTTGCCTCCATCCAGCTTGATG | Not met
TTTGTTGCTGTTGCCGCCGTGT | Met
TAGGGGTCGCACACCATGCGGC | Met

Hi, just wondering whether TATAACTTTGGTCAGACGGGGC shows sensor-assay potency score (higher = more potent) of -0.7 or higher. Met

Hi, just wondering whether TTGAGTACCTCGTAACCCTCGT shows sensor-assay potency score (higher = more potent) of -0.7 or higher. Met

Hi, just wondering whether TTGCACGTAAACTTGCCGCTGG shows sensor-assay potency score (higher = more potent) of -0.7 or higher. Met

###

target: MON2; assay: pooled miR-30 sensor sort-seq; sequence = guide strand; details: shRNA
Property measured: sensor-assay potency score (higher = more potent)
Write the value as a bare number.

# annotated cases, reported sensor-assay potency score (higher = more potent) shown
Polymer sequence | Experimental target | Reported measurement
TTGAATAGAGAGATTATCTGGA | MON2 | 0.727
AACATCTACAACTATTTGCAGG | MON2 | -1.11
TTGGACATCTCCTTTAACGGGT | MON2 | -0.305

Param readout = sensor-assay potency score (higher = more potent); param system = MON2; param query = TAAACTAATATTGAGTTCTTGG ; response: value -0.234

Param readout = sensor-assay potency score (higher = more potent); param system = MON2; param query = TTGTTCTATAATATCTCTGTGT ; response: value -0.519

Param readout = sensor-assay potency score (higher = more potent); param system = MON2; param query = TAGAAAATCTGTCACAACCAAC ; response: value -1.49

Param readout = sensor-assay potency score (higher = more potent); param system = MON2; param query = TAGTCGAAAACAAAGAACGATT ; response: value -1.16

###

target: NKPD1; experiment: pooled miR-30 sensor sort-seq; sequence = guide strand; settings: shRNA
Property measured: sensor-assay potency score (higher = more potent)
Write the value as a bare number.

Polymer sequence | Experimental target | Reported measurement
TCGCACATGAAACCCAGCTGGC | NKPD1 | -0.962
TTGTCGCGGAAAACGTCCCAGA | NKPD1 | -1.15
TACAACAGGTCGTCGCGGCTCT | NKPD1 | -0.332
TCTCGCGGTACAACAGGTCGTC | NKPD1 | -0.615
TTGAGCAGGCTGCCGCTCGGGC | NKPD1 | -0.937
AGGAACTGCAGCTTGGTGCGGC | NKPD1 | -1.31

Read the next record carefully.
For TTACGAACAGGTGCTTGCCCAC , what is its reported sensor-assay potency score (higher = more potent)? -0.968
